Target: T1, 4H687-bA
T1 chain: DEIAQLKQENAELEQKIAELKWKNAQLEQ
Test: two-hybrid library CCNG1;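 also: natural log of median RNA to DNA barcode read ratio; higher means stronger binding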
metric-name: interaction score

Q: Which interaction score value belongs to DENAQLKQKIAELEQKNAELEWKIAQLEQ [4H1845-bA] ?
Result: -0.612

Q: // lookup interaction score for DENAQLEQKIAELEQKIAELKWKNAQLKQ [4H1328-bA]
Result: -0.983

a. DKIAQLKQEIAELKQKIAELKWENAQLEQ [4H2667-bA]
b. DKNAQLEQEIAELKQKNAELEWEIAQLEQ [4H3185-bA]
Q: Looking only at measured interaction score, which entry is lower, a or b ? Returns: label corresponding to the selected item.
Result: a
